# target desc: UniProt:P23977
# Sequence (P23977 whole entry): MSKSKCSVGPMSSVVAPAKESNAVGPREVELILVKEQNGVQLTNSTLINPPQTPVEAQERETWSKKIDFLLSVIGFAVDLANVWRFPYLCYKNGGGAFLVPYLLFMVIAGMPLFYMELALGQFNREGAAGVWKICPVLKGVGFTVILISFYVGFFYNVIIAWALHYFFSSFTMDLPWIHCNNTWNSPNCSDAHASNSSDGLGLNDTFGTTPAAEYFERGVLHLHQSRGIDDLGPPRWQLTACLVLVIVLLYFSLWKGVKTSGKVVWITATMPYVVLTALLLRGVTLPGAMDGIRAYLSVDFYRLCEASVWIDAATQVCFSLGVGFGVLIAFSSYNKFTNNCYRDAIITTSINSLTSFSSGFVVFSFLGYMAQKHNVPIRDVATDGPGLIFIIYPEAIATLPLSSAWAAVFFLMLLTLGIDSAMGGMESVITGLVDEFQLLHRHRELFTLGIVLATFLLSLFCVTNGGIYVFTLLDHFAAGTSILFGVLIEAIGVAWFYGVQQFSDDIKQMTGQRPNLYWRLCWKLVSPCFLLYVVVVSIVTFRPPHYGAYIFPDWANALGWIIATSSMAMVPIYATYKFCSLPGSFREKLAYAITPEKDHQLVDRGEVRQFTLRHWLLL
# method: Binding affinity of compound on dopamine transporters of rat striated membranes using [3H]- mazindol.
# Format: cell membranes, Membrane
Threshold 20 nM: Ki strictly smaller gives met, otherwise not met.

Look over these answered cases.
molecule="CN1C2CC[C@@H]1CC(c1ccccc1)[C@@H]2c1ccccc1 (stereo not given in full)" class_label="not met"
molecule="Cc1ccc(C2C[C@H]3CCC([C@H]2c2ccccc2)N3C)cc1 (stereo not given in full)" class_label=met
molecule=COC(=O)[C@@H]1C2CC[C@H](C[C@@H]1c1ccc(C)cc1)N2C class_label=met

[Q] Lab note: Ki threshold 20 nM. Does this molecule come in strictly under it? CCC[C@H]1C2CC[C@H](C[C@H]1c1ccc(F)cc1)N2C
[A] not met

[Q] Another molecule: COC(=O)[C@H]1C(c2ccccc2)C[C@H]2CCC1N2C (stereo not given in full)
[A] not met

Data provenance: ChEMBL document CHEMBL1131420
